- protocol: Pharmacokinetic evaluation in mice, plasma, IV and PO
- Type: in vivo
- test.context: IV (0.4 mg/kg), Balb/c male mice, plasma
measured.attribute: Tlast
Please answer in the form of a number followed by its unit of measurement.

1) Cc1cc2ncnn2cc1Nc1ncc2c(n1)C1(CCC(F)(F)CC1)C(=O)N2C [Compound 9] = 2 h
2) Cc1cc2ncnn2cc1Nc1ncc2c(n1)C1(CCC3(CCC3)CC1)C(=O)N2C [Compound 11] = 2 h
3) Cc1cc2ncnn2cc1Nc1ncc2c(n1)C1(CCC(C)(C)CC1)C(=O)N2C [Compound 12] = 1 h

# ---- query compound ----
Exercise: Can you look up the measured Tlast of Cc1cc2ncnn2cc1Nc1ncc2c(n1)C1(CCC3(CC3)CC1)C(=O)N2C [Compound 15] for me?
Key: 2 h

====

Listing of entries alongside the reported IC50.
- study.system: Human-derived DNA-PK (Homo sapiens, UniProt P78527)
- protocol: DNA-dependent protein kinase (DNA-PK) inhibitory activity screening experiment (Eurofins, HTRF)
- Format: biochemical
- test.context: ATP: 10 μM; 50 nM GST-cMyc-p53; 30 minutes at room temperature; read-out: DNA-PK kinase inhibitory activity IC50
Reply numerically in nM, unit not repeated.

1. COC1CCC2(CC1)C(=O)N(C)c1cnc(Nc3cn4ncnc4cc3C)nc12 (single isomer, unassigned) [Compound 4] = 4
2. Cc1cc2ncnn2cc1Nc1ncc2c(n1)C1(CCSCC1)C(=O)N2C = 8
3. Cc1cc2ncnn2cc1Nc1ncc2c(n1)C1(CCS(=O)(=O)CC1)C(=O)N2C = 84

Here is another compound to look at.
Exercise: # value lookup — system Human-derived DNA-PK (Homo sapiens, UniProt P78527), readout IC50, item Cc1cc2ncnn2cc1Nc1ncc2c(n1)C1(CCC(=O)CC1)C(=O)N2C
Key: 15

====

- protocol: Pharmacokinetic evaluation in mice, plasma, IV and PO
- Format: in vivo
- test.context: mouse; PO (2 mg/kg), Balb/c male mice, plasma
measured.attribute: AUC(0-t) (µM·h)
Express the result in µM·h but write the number alone.

Exercise: Please give the measured AUC(0-t) for this molecule: Cc1cc2ncnn2cc1Nc1ncc2c(n1)C1(CCC3(CCC3)CC1)C(=O)N2C [Compound 11]
Key: 1.29

Exercise: Next record, please: Cc1cc2ncnn2cc1Nc1ncc2c(n1)C1(CCC(F)(F)CC1)C(=O)N2C [Compound 9]
Key: 1.16

====

- protocol: Pharmacokinetic evaluation in mice, plasma, IV and PO
- Assay type: in vivo
- test.context: PO (2 mg/kg) vs IV (0.4 mg/kg), Balb/c male mice
This listing pairs compounds with measured F.
Response body: numeric value in %, unit text excluded.

Before answering, review these 3 worked examples.
1. Cc1cc2ncnn2cc1Nc1ncc2c(n1)C1(CCC(F)(F)CC1)C(=O)N2C [Compound 9] = 74.5
2. Cc1cc2ncnn2cc1Nc1ncc2c(n1)C1(CCC3(CC3)CC1)C(=O)N2C [Compound 15] = 83
3. Cc1cc2ncnn2cc1Nc1ncc2c(n1)C1(CCC(C)(C)CC1)C(=O)N2C [Compound 12] = 114

Exercise: What does the data say about its F? Entry: Cc1cc2ncnn2cc1Nc1ncc2c(n1)C1(CCC3(CCC3)CC1)C(=O)N2C [Compound 11]
Key: 73.7

====

- protocol: Pharmacokinetic evaluation in mice, plasma, IV and PO
- Type: in vivo
- test.context: mouse; IV (0.4 mg/kg), Balb/c male mice, plasma
measured.attribute: C0 (nM)
# number only, unit nM dropped from output

1. Cc1cc2ncnn2cc1Nc1ncc2c(n1)C1(CCC3(CC3)CC1)C(=O)N2C [Compound 15] = 1230
2. Cc1cc2ncnn2cc1Nc1ncc2c(n1)C1(CCC(C)(C)CC1)C(=O)N2C [Compound 12] = 1280
3. Cc1cc2ncnn2cc1Nc1ncc2c(n1)C1(CCC(F)(F)CC1)C(=O)N2C [Compound 9] = 871

Exercise: What measured C0 goes with Cc1cc2ncnn2cc1Nc1ncc2c(n1)C1(CCC3(CCC3)CC1)C(=O)N2C [Compound 11] ?
Key: 1250

====

- protocol: Pharmacokinetic evaluation in mice, plasma, IV and PO
- Format: in vivo
- test.context: mouse; IV (0.4 mg/kg), Balb/c male mice, plasma; read-out: Vdss
measured.attribute: Vd (L/kg)
# unit: L/kg | format: bare number

1) Cc1cc2ncnn2cc1Nc1ncc2c(n1)C1(CCC(C)(C)CC1)C(=O)N2C [Compound 12] = 0.794
2) Cc1cc2ncnn2cc1Nc1ncc2c(n1)C1(CCC(F)(F)CC1)C(=O)N2C [Compound 9] = 1.07
3) Cc1cc2ncnn2cc1Nc1ncc2c(n1)C1(CCC3(CCC3)CC1)C(=O)N2C [Compound 11] = 0.855

Turning to the following compound.
Exercise: Given the entry Cc1cc2ncnn2cc1Nc1ncc2c(n1)C1(CCC3(CC3)CC1)C(=O)N2C [Compound 15] , report its measured Vd.
Key: 0.853

====

- protocol: Pharmacokinetic evaluation in mice, plasma, IV and PO
- Format: in vivo
- test.context: mouse; PO (2 mg/kg), Balb/c male mice, plasma
Parameter: half-life. Scope: all listed entries.
Use min as the unit, but write only the number.

1) Cc1cc2ncnn2cc1Nc1ncc2c(n1)C1(CCC(F)(F)CC1)C(=O)N2C = 28.7

Here's the next entry for you.
Exercise: Endpoint output: half-life of Cc1cc2ncnn2cc1Nc1ncc2c(n1)C1(CCC3(CCC3)CC1)C(=O)N2C . Value?
Key: 29.6

====

- protocol: Pharmacokinetic evaluation in mice, plasma, IV and PO
- Assay type: in vivo
- test.context: mouse; PO (2 mg/kg), Balb/c male mice, plasma; read-out: Tmax
Consider the following compounds and their measured Tmax readings.
Give just the numeric value; min need not be written.

1) Cc1cc2ncnn2cc1Nc1ncc2c(n1)C1(CCC3(CCC3)CC1)C(=O)N2C = 30

We now examine a further compound.
Exercise: Using the record for Cc1cc2ncnn2cc1Nc1ncc2c(n1)C1(CCC(F)(F)CC1)C(=O)N2C , report its Tmax.
Key: 30

====

Listing: IC50 of selected molecules
- study.system: Human-derived DNA-PK (Homo sapiens)
- protocol: DNA-dependent protein kinase (DNA-PK) inhibitory activity screening experiment (Eurofins, HTRF)
- Assay type: biochemical
- test.context: ATP: 10 μM; 50 nM GST-cMyc-p53; 30 minutes at room temperature; read-out: DNA-PK kinase inhibitory activity IC50
# output: bare number, implied unit nM

Below are worked cases with known answers.
1) CC(=O)N1CCC2(CC1)C(=O)N(C)c1cnc(Nc3cn4ncnc4cc3C)nc12 = 6
2) Cc1cc2ncnn2cc1Nc1ncc2c(n1)C1(CCCCC1)C(=O)N2C = 6
3) Cc1cc2ncnn2cc1Nc1ncc2c(n1)C1(CCC3(CC1)COC3)C(=O)N2C = 6
4) Cc1cc2ncnn2cc1Nc1ncc2c(n1)C1(CC1)C(=O)N2C = 39

Exercise: Which measured IC50 value corresponds to Cc1cc2ncnn2cc1Nc1ncc2c(n1)C1(CCC3(CC3)CC1)C(=O)N2C ?
Key: 4

====

// clearance lookup, one value per entry
- protocol: Pharmacokinetic evaluation in mice, plasma, IV and PO
- Assay type: in vivo
- test.context: mouse; IV (0.4 mg/kg), Balb/c male mice, plasma
Entry rule: numbers only, all in mL/min/kg.

1. Cc1cc2ncnn2cc1Nc1ncc2c(n1)C1(CCC(F)(F)CC1)C(=O)N2C = 53.4
2. Cc1cc2ncnn2cc1Nc1ncc2c(n1)C1(CCC3(CCC3)CC1)C(=O)N2C = 47.2
3. Cc1cc2ncnn2cc1Nc1ncc2c(n1)C1(CCC(C)(C)CC1)C(=O)N2C = 45.8

Exercise: Param item = Cc1cc2ncnn2cc1Nc1ncc2c(n1)C1(CCC3(CC3)CC1)C(=O)N2C ; retrieve measured clearance.
Key: 37.6
